Just for reference, PubChem BioAssay (Tox21) is where these values come from.

- target-under-test: Glucocorticoid receptor (Homo sapiens)
- assay-comment: qHTS assay to identify small molecule antagonists of the glucocorticoid receptor (GR) signaling pathway (AID 720692); note: potency is the fitted concentration of half-maximal effect
- particulars: GR-bla HeLa, beta-lactamase FRET ratio, dexamethasone-stimulated, 18 h; series mostly up to 58.5 µM
Results filed as inconclusive are left out. Active and inactive are the calls of the source. Calls come from the whole dose curve; as a rule, active = well fitted inhibition curve with a large enough effect in the signal ratio in the repeat runs (not every such curve was filed as active); inconclusive = weak or mixed curves, or effect the other way; inactive = no such curve, though single readings can be large or run the other way; the % refers to the signal ratio.
experimental-readout: Potency

> print(dat)
                                   compound                       target.under.test  experimental.readout  observed.value
1  COC(=O)[C@]1(C)CCC[C@@]2(C)[C@H]1CC=C1C=C(C(C)C)CC[C@@H]12  Glucocorticoid receptor (Homo sapiens)               Potency        inactive
2  CN1[C@@H]2CC[C@@H]1CC(OC(=O)C(CO)c1ccccc1)C2 (stereo partly drawn)  Glucocorticoid receptor (Homo sapiens)               Potency        inactive
3       CCCC(CC)CCCCCCCN (stereo not drawn)  Glucocorticoid receptor (Homo sapiens)               Potency        inactive
4                        CCC(=O)OCCc1ccccc1  Glucocorticoid receptor (Homo sapiens)               Potency        inactive
5              NCCCC(O)(P(=O)(O)O)P(=O)(O)O  Glucocorticoid receptor (Homo sapiens)               Potency        inactive
6  CN1[C@@H]2CC[C@H]1CC(OC(=O)C(CO)c1ccccc1)C2 (stereo partly drawn)  Glucocorticoid receptor (Homo sapiens)               Potency        inactive

// query Query for Glucocorticoid receptor (Homo sapiens): what Potency does the record show for O=C1Nc2ccc(Cl)cc2[C@@](C#CC2CC2)(C(F)(F)F)O1 ?
// result 23.9 µM (active)

// query Give the reported Potency for C=CC(=O)OCCOCC(CC)(COCCOC(=O)C=C)COCCOC(=O)C=C (system: Glucocorticoid receptor (Homo sapiens)).
// result 22.8 µM (active)

// query Test system Glucocorticoid receptor (Homo sapiens); read-out Potency; what value for NC(=O)C(=O)N/N=C/c1ccc([N+](=O)[O-])o1 ?
// result inactive
